molecular target: native EpCAM expressed on the cell surface (Homo sapiens, UniProt P16422); construct: host or cells: T47D, MCF7, MDA-MB-231, HT-29 (EpCAM-positive); U118MG (EpCAM-negative control); assay: Binding affinities of EpCAM aptamers by flow cytometry; conditions: HT29 cells; read-out: KD (±SEM)
METRIC NAME: pKd
API: returns pKd as number; meaning -log10 of concentration in mol/L.

substance 5′-DY647-mGCmGACUmGmGUUmACCCmGmGUCmGdT-3′ (GCGACUGGUUACCCGGUCGN; 5' DY647, 2'-O-methyl, 3' dT, further chemistry not given here) [Control] , pKd observed: 6.08

For 5′-GCGACUGGUUACCCGGUCG-3′ (RNA aptamer, modifications not given here, further chemistry not given here) [DT3] the substance record lists pKd as 6.80

5′-ACGUAUCCCUUUUCGCGUA-3′ (RNA aptamer, fluorescent dye conjugate used, modifications not given here, further chemistry not given here) [compound 23] yielded pKd of 7.43

----------
tested on: native EpCAM expressed on the cell surface; assay: Binding affinities of EpCAM aptamers by flow cytometry; parameters: species or system human; details: U118MG cells (EpCAM negative); read-out: KD (±SEM)
METRIC NAME: Kd

5′-DY647-mGCmGACUmGmGUUmACCCmGmGUCmGdT-3′ (GCGACUGGUUACCCGGUCGN; 5' DY647, 2'-O-methyl, 3' dT, further chemistry not given here) [Control]: > 1 µM

Record 5′-ACGUAUCCCUUUUCGCGUA-3′ (RNA aptamer, fluorescent dye conjugate used, modifications not given here, further chemistry not given here) [compound 23] . Reported Kd: > 1 µM

So for 5′-GCGACUGGUUACCCGGUCG-3′ (RNA aptamer, modifications not given here, further chemistry not given here) [DT3] , the logged Kd turned out to be > 1 µM

----------
# pKd annotations
Biological target: native EpCAM expressed on the cell surface (Homo sapiens, UniProt P16422)
Construct: host or cells: T47D, MCF7, MDA-MB-231, HT-29 (EpCAM-positive); U118MG (EpCAM-negative control)
Sequence (P16422 24-314): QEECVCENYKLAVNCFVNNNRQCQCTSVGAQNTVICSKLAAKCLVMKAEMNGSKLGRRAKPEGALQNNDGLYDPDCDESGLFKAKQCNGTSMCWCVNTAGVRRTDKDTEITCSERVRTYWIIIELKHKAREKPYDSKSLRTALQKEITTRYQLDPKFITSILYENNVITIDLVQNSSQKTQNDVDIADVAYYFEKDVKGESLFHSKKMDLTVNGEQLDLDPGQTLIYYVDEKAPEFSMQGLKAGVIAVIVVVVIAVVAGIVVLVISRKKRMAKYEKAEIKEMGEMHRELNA
Test: Binding affinities of EpCAM aptamers by flow cytometry
Settings: MDA-MB-231 cells; read-out: KD (±SEM)
# reply with the number alone; pKd is -log10 of concentration in mol/L

5′-ACGUAUCCCUUUUCGCGUA-3′ (RNA aptamer, fluorescent dye conjugate used, modifications not given here, further chemistry not given here) [compound 23]: 7.06

Shifting focus to the substance that follows.
Documented pKd of 5′-GCGACUGGUUACCCGGUCG-3′ (RNA aptamer, modifications not given here, further chemistry not given here) [DT3] : 7.00

The measurements presented in this section are drawn from patent US9567586B2.
